Give measured Relative cell count to DMSO controls, Average 25 μM for each item. Keep answers brief.
- Tested on: cells (nuclei count)
- assay context: 25 μM; toxicity data; 100=DMSO control

# value of Relative cell count to DMSO controls, Average 25 μM, cells (nuclei count), item COc1ccc(CNCCc2ccccc2F)c(OCC(O)CN2CCOCC2)c1 (stereo not shown) = 115.31

Simply: `CCN(CC)CCN(Cc1ccncc1)C(=O)c1cccs1` , cells (nuclei count), Relative cell count to DMSO controls, Average 25 μM = 107.71

Reading of Relative cell count to DMSO controls, Average 25 μM for `Cc1csc(CN(CCN(C)C)Cc2ccco2)c1` with cells (nuclei count): 75.47

The molecule `Cc1cc(CN(CCN(C)C)Cc2ccsc2)oc1C` on cells (nuclei count): Relative cell count to DMSO controls, Average 25 μM was 103.23

Here `CN(C)CCCN(Cc1cccs1)C(=O)c1cccs1` was tested on cells (nuclei count), and its Relative cell count to DMSO controls, Average 25 μM came to 83.93

Item `CCN(CC)CCN(Cc1ccccc1)Cc1ccc(C)o1` was tested on cells (nuclei count); the reported Relative cell count to DMSO controls, Average 25 μM is 112.58

# COc1ccc(CNCCc2ccccc2F)c(OCC(O)CN2CCCC2)c1 (racemic) with cells (nuclei count): Relative cell count to DMSO controls, Average 25 μM is 136.27

Simply: COc1ccc(C2NC(=O)NC(C)=C2C(=O)NCC2CCCCC2)cc1OC (stereo not shown) , cells (nuclei count), Relative cell count to DMSO controls, Average 25 μM = 91.46

# lookup: `Cc1ccc(CN(CCN(C)C)Cc2ccc(C)s2)o1` on cells (nuclei count), Relative cell count to DMSO controls, Average 25 μM = 103.49

Value (Relative cell count to DMSO controls, Average 25 μM, cells (nuclei count)) for record COc1ccc(C2NC(=O)NC(C)=C2C(=O)NCC2CCC2)cc1OC (stereo not shown) = 84.89
